B1: SCARA5 (parent)
chain: VTEDLRLKDWEHSIALRNISLAKG

- Variants of: B1
- Assay name: protein stability index of a GFP-peptide fusion (GPS, HEK-293T) (PSI 1-6); higher = more stable;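 further: lentivirally expressed fusions sorted by FACS into six bins by GFP to DsRed ratio, PSI derived from sequencing read proportions per bin multiplied by bin number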
- Run parameters: c terminus: a fixed tail appended
In this section we review reported protein stability index values for a set of variants.
Endpoint name: protein stability index

{"columns": ["Variant label", "Measured number"],
 "data": [
  ["R6H", 3.62],
  ["D4M", 2.45],
  ["L7W", 2.98],
  ["K8D", 3.62],
  ["T2P", 3.69],
  ["R17H", 3.41],
  ["A22Y", 2.23],
  ["W10Y", 3.62],
  ["D9R", 3.14],
  ["K23M", 2.16],
  ["L5M", 3.46],
  ["A22N", 3.61],
  ["A22K", 3.95],
  ["R17F", 2.49],
  ["R17K", 3.38],
  ["R17E", 4.06],
  ["I14Q", 3.91],
  ["H12W", 2.25],
  ["L21Q", 3.65],
  ["I14D", 4.26],
  ["S13G", 3.01],
  ["K23H", 3.29],
  ["L16Y", 3.14],
  ["L16K", 3.77],
  ["D4Q", 3.42],
  ["L21G", 4.03],
  ["L5G", 3.93],
  ["I14W", 3.29],
  ["H12M", 2.77],
  ["L7I", 3.13],
  ["I14N", 3.96],
  ["E11M", 2.46],
  ["L16A", 3.71],
  ["L16W", 2.91],
  ["V1G", 3.15]
]}
